Experimental Target: EGFR L858R (Homo sapiens, UniProt P00533, L858R)
Construct: purchased SignalChem E10-122BG
Sequence (P00533 25-1210 L858R): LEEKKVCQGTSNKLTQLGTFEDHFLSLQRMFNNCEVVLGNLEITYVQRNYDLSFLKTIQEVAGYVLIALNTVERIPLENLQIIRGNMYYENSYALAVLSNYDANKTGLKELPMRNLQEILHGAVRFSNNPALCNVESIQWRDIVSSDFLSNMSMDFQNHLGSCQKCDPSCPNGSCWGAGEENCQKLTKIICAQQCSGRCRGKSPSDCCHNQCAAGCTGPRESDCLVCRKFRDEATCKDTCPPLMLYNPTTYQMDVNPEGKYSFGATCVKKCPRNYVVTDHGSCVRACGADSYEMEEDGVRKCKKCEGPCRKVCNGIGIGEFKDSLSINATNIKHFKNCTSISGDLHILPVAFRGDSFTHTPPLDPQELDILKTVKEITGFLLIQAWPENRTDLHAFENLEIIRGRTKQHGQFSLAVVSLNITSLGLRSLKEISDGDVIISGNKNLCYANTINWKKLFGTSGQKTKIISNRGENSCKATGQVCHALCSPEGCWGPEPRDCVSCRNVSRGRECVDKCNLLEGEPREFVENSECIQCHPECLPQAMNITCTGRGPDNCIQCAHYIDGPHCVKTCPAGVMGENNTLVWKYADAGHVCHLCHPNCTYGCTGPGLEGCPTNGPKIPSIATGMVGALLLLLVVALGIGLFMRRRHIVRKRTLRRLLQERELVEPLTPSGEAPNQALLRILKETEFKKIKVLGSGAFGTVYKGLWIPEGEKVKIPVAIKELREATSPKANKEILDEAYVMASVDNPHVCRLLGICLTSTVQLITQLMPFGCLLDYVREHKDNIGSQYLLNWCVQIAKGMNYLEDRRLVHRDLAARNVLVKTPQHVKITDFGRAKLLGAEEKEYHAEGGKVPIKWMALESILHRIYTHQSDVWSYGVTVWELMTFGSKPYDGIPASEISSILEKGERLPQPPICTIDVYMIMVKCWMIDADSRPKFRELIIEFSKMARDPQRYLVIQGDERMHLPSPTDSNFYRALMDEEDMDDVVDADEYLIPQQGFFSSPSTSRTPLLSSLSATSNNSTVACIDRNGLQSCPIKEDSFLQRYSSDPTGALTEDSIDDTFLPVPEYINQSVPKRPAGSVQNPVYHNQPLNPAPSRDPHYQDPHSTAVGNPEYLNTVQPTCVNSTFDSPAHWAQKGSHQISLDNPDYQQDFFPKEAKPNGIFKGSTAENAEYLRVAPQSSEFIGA
Protocol Notes: Biochemical EGFR inhibition assay (Caliper mobility shift), EGFR L858R
Test Conditions: biochemical Caliper mobility shift assay, EGFR L858R enzyme; read-out: Enz EGFR L858R IC50
// reported IC50 per item

{"Compound": "Cn1cc(-c2cc(O[C@@H]3CC[C@H](O)C3)c3c(Nc4ccc5ncsc5c4)ncnc3c2)cn1 [Example 411]", "IC50": "≤ 10 nM"}
{"Compound": "CN(C)C[C@@H](Oc1cc(-c2cnn(C)c2)cc2ncnc(Nc3ccc4ncsc4c3)c12)C(F)F (single isomer, unassigned) [Example 151]", "IC50": "≤ 10 nM"}
{"Compound": "C[C@H](CO)Oc1cc(N2CCN(C)CC2)cc2ncnc(Nc3ccc4ncsc4c3F)c12 (single isomer, unassigned) [Example 295]", "IC50": "10.1 to 50 nM"}
{"Compound": "CO[C@H]1CCN(c2cc(O[C@H](C)C3COC3)c3c(Nc4ccc5ncsc5c4)ncnc3c2)C1 [Example 197]", "IC50": "≤ 10 nM"}
{"Compound": "Cn1cc(-c2cc(O[C@@H]3CNC[C@@H]3F)c3c(Nc4ccc5ncsc5c4)ncnc3c2)cn1 (racemic) [Example 379]", "IC50": "10.1 to 50 nM"}
{"Compound": "CN1CC[C@H](Oc2cc(-c3cnn(C)c3)cc3ncnc(Nc4ccc5ncsc5c4F)c23)C1 [Example 16]", "IC50": "10.1 to 50 nM"}
{"Compound": "C[C@@H](Oc1cc(-c2cnn(C)c2)cc2ncnc(Nc3ccc4ncsc4c3F)c12)C1CN(C)C1 (single isomer, unassigned) [Example 388]", "IC50": "> 50.1 nM"}
{"Compound": "CN(C)C[C@H](Oc1cc(-c2cnn(C)c2)cc2ncnc(Nc3ccc4ncsc4c3)c12)C(F)(F)F (single isomer, unassigned) [Example 179]", "IC50": "> 50.1 nM"}
{"Compound": "C[C@@H](Oc1cc(-c2cnn(C)c2)cc2ncnc(Nc3ccc4ncsc4c3F)c12)[C@H]1CCOC1 (single isomer, unassigned) [Example 89]", "IC50": "≤ 10 nM"}
{"Compound": "C[C@@H](Oc1cc(-c2cnn(CC(C)(C)O)c2)cc2ncnc(Nc3ccc4ncsc4c3)c12)C1COC1 (single isomer, unassigned) [Example 128]", "IC50": "≤ 10 nM"}
{"Compound": "COc1cc2ncnc(Nc3ccc4ncsc4c3)c2cc1-c1cnn(C)c1 [Example 132]", "IC50": "≤ 10 nM"}
{"Compound": "C[C@H](CN(C)C)Oc1cc(N2CC[C@H](C(C)(C)O)C2)cc2ncnc(Nc3ccc4ncsc4c3)c12 [Example 181]", "IC50": "≤ 10 nM"}
{"Compound": "CC(C)N1CCN(c2cc(OC3CCOCC3)c3c(Nc4ccc5ncsc5c4)ncnc3c2)C1=O [Example 194]", "IC50": "≤ 10 nM"}
{"Compound": "COc1cc2ncnc(Nc3ccc4ncsc4c3)c2cc1N[C@@H]1CCN(C)C[C@H]1F [Example 301]", "IC50": "≤ 10 nM"}
{"Compound": "COc1cc2c(Nc3ccc4ncsc4c3)ncnc2cc1-c1cnn(C)c1 [Example 263]", "IC50": "≤ 10 nM"}
{"Compound": "C[C@H](CN(C)C)Oc1cc(N2CC[C@@H](C(C)(C)O)C2)cc2ncnc(Nc3ccc4ncsc4c3)c12 [Example 182]", "IC50": "≤ 10 nM"}
{"Compound": "COc1nn(C)cc1-c1cc(OC2COC2)c2c(Nc3ccc4ncsc4c3)ncnc2c1 [Example 18]", "IC50": "≤ 10 nM"}
{"Compound": "CNC[C@@H](C)Oc1cc(-c2cnn(C)c2)cc2ncnc(Nc3ccc4ncsc4c3)c12 [Example 396]", "IC50": "10.1 to 50 nM"}
{"Compound": "CN1CC[C@@H](Nc2cc3c(Nc4ccc5ncsc5c4)ncnc3cc2-c2cnn(C)c2)[C@H](F)C1 (single isomer, unassigned) [Example 326]", "IC50": "≤ 10 nM"}
{"Compound": "CN1CC[C@@H](Oc2cc(-c3cnn(C)c3)cc3ncnc(Nc4ccc5ncsc5c4)c23)[C@@H](F)C1 (single isomer, unassigned) [Example 340]", "IC50": "≤ 10 nM"}
{"Compound": "C[C@@H](CN(C)C)Oc1cc(-c2cnn(C)c2)cc2ncnc(Nc3ccc4ncsc4c3)c12 (single isomer, unassigned) [Example 159]", "IC50": "10.1 to 50 nM"}
{"Compound": "C[C@@H](Oc1cc(-c2cnn(C)c2)cc2ncnc(Nc3ccc4ncsc4c3)c12)C(CO)CO [Example A56]", "IC50": "≤ 10 nM"}
{"Compound": "Cn1cc(-c2cc(O[C@@H]3CCOC[C@@H]3F)c3c(Nc4ccc5ncsc5c4)ncnc3c2)cn1 (single isomer, unassigned) [Example 43]", "IC50": "≤ 10 nM"}
{"Compound": "Cn1cc(-c2cc(OC[C@H]3CCCO3)c3c(Nc4ccc5ncsc5c4)ncnc3c2)cn1 [Example 31]", "IC50": "≤ 10 nM"}
{"Compound": "COc1nn(C)cc1-c1cc(O[C@H](C)C2COC2)c2c(Nc3ccc4ncsc4c3F)ncnc2c1 (single isomer, unassigned) [Example 79]", "IC50": "≤ 10 nM"}
{"Compound": "COCCOc1cc(O[C@H](C)C2COC2)c2c(Nc3ccc4ncsc4c3F)ncnc2c1 (single isomer, unassigned) [Example 85]", "IC50": "≤ 10 nM"}
{"Compound": "Cn1cc(-c2cc(OC3CCN(CC(F)F)CC3)c3c(Nc4ccc5ncsc5c4)ncnc3c2)cn1 [Example 311]", "IC50": "≤ 10 nM"}
{"Compound": "CN1CC[C@H](Oc2cc(-c3cnn(C)c3)cc3ncnc(Nc4ccc5ncsc5c4)c23)C1 [Example 34]", "IC50": "10.1 to 50 nM"}
